meta.source: PubChem BioAssay AID1259421

# TEST_METHOD_NOTES: T. gondii ME49Luc in HeLa cells, luciferase assay, 72 h, no IFN-y (AID 1259421)
# APPLIED_CONDITIONS: active compounds read low, concentration not given here
About 610 (9.5%) of roughly 6,400 compounds were called active. Only a selection was taken, and actives are over-represented in it overall.
Assignment: determine reported activity change, negative = inhibition for the given compounds.
One number for each entry, in %.

compound="CC(=O)NC1=NN(C(C)=O)C(C)(c2ccccc2)S1 (centres undefined)" endpoint_result=-32.2
compound="CCC[N+]12C3C[C@H](C4C(O)[C@]5(C[C@@H]41)c1ccccc1N(C)[C@@H]35)[C@H](CC)[C@H]2O (some centres undefined)" endpoint_result=10.9
compound="NC(CC(=O)Nc1ccc(Oc2cc(F)c(F)cc2Br)cc1)C(=O)O (centres undefined)" endpoint_result=0.0757

Please examine the following record next.
Problem: Consider the compound NC(=O)C1CSSCCC(=O)NC(CCCCN=C(N)N)C(=O)NCC(=O)NC(CC(=O)O)C(=O)NC(Cc2c[nH]c3ccccc23)C(=O)N2CCCC2C(=O)N1 (centres undefined) and give its measured activity change, negative = inhibition.
Result: 1.76

---

Assignment: determine reported activity change, negative = inhibition for the given molecules.
# TEST_METHOD_NOTES: T. gondii ME49Luc in HeLa cells, luciferase assay, 72 h, no IFN-y (AID 1259421)
# APPLIED_CONDITIONS: active compounds read low, concentration not given here
The campaign covered roughly 6,400 compounds. About 610 (9.5%) were called active. Shown is part of a subset that was picked to be rich in actives.
Answers are plain numbers, in %.

molecule=COc1cc2c(cc1OC)CN(CCc1ccc(NC(=O)c3cc(OC)c(OC)cc3NC(=O)c3cnc4ccccc4c3)cc1)CC2 unit_tag=% endpoint_result=1.38
molecule=COc1cc(N2CCC(N3CCN(C)CC3)CC2)ccc1Nc1ncnc(Nc2ccccc2S(=O)(=O)C(C)C)n1 unit_tag=% endpoint_result=-35.3
molecule=CNC(=O)c1c(F)cccc1Nc1nc(Nc2cc3c(cc2OC)CCN3C(=O)CN(C)C)nc2[nH]ccc12 unit_tag=% endpoint_result=-10.7
molecule=COc1cc(N2CCC(N(C)C)CC2)ccc1Nc1ncc(Cl)c(Nc2ccccc2P(C)(C)=O)n1 unit_tag=% endpoint_result=-60.2
molecule=COc1cc2c(cc1OC)CN(CCc1ccc(NC(=O)c3cccc4c(=O)c5cccc(OC)c5[nH]c34)cc1)CC2 unit_tag=% endpoint_result=-79.7
molecule=CNC(=O)c1ccccc1Nc1nc(Nc2ccc3c(c2OC)CCC[C@H](N2CCN(CCO)CC2)C3)ncc1Cl unit_tag=% endpoint_result=-74.8

Please examine the following record next.
Problem: Consider the molecule CCNC(=O)[C@@H]1CCCN1C(=O)[C@H](CCCN=C(N)N)NC(=O)[C@H](CC(C)C)NC(=O)[C@@H](COC(C)(C)C)NC(=O)[C@H](Cc1ccc(O)cc1)NC(=O)[C@H](CO)NC(=O)[C@H](Cc1c[nH]c2ccccc12)NC(=O)[C@H](Cc1cnc[nH]1)NC(=O)C1CCC(=O)N1 (some centres not stated) and give its measured activity change, negative = inhibition.
Result: 9.62

---

# TEST_METHOD_NOTES: T. gondii ME49Luc in HeLa cells, luciferase assay, 72 h, no IFN-y (AID 1259421)
# APPLIED_CONDITIONS: active compounds read low, concentration not given here
Among all 6,400 compounds or so, about 610 (9.5%) were called active. This is one part of a sample in which actives are shown more often than they occur.
For each record, check the reported activity change, negative = inhibition: if it is below -20% write true, else write false.

Consider the following illustrative entries.
compound="C#C[C@]1(O)CCC2C3CCc4cc(OC)ccc4C3CC[C@@]21C (stereo not given in full)" qualitative_label=false
compound=CC(C)(c1ccc(O)cc1)c1ccc(O)cc1 qualitative_label=false
compound=CC(=O)NCC(=O)N1[C@@H]2CC[C@H]1c1ccc(Nc3ncc(C(F)(F)F)c(NC4CCC4)n3)cc12 qualitative_label=true
compound="CC1(C)CC(=O)c2c(C(F)(F)F)nn(-c3ccc(C(N)=O)c(NC4CCC(OC(=O)CN)CC4)c3)c2C1 (stereo not given)" qualitative_label=true
compound="CCCS(=O)c1ccc2nc(NC(=O)OC)[nH]c2c1 (stereo not given)" qualitative_label=false
compound=C#C[C@]1(O)CC[C@H]2[C@@H]3CCc4cc(O)ccc4[C@H]3CC[C@@]21C qualitative_label=true

Problem: is_below(activity change, negative = inhibition, -20%) for CC(C)=CCC/C(C)=C/C=C/C(C)=C/C=C/C(C)=C/C=C/C=C(C)/C=C/C=C(C)/C=C/C=C(\C)CCC=C(C)C ?
Result: false

Problem: Consider next the compound C#C[C@]1(O)CCC2C3CCc4cc(O)ccc4C3CC[C@@]21C (stereo not given in full) in the same way.
Result: true

Problem: Consider next the compound CC(C)S(=O)(=O)NC[C@H](C)c1ccc(-c2ccc(CCNS(C)(=O)=O)cc2)cc1 in the same way.
Result: false

Problem: Consider next the compound COC(=O)Nc1nc2ccc(C(=O)C3CC3)cc2[nH]1 in the same way.
Result: true

Problem: Consider next the compound COC(=O)Nc1nc2ccc(C(=O)c3ccc(F)cc3)cc2[nH]1 in the same way.
Result: true

Problem: Consider next the compound C=CC(=O)Nc1cccc(Nc2nc(Nc3ccc(N4CCN(C(C)=O)CC4)cc3OC)ncc2C(F)(F)F)c1 in the same way.
Result: false
